Target: human NaV 1.8 (Homo sapiens, UniProt Q9Y5Y9)
Sequence (Q9Y5Y9 whole entry, looked up): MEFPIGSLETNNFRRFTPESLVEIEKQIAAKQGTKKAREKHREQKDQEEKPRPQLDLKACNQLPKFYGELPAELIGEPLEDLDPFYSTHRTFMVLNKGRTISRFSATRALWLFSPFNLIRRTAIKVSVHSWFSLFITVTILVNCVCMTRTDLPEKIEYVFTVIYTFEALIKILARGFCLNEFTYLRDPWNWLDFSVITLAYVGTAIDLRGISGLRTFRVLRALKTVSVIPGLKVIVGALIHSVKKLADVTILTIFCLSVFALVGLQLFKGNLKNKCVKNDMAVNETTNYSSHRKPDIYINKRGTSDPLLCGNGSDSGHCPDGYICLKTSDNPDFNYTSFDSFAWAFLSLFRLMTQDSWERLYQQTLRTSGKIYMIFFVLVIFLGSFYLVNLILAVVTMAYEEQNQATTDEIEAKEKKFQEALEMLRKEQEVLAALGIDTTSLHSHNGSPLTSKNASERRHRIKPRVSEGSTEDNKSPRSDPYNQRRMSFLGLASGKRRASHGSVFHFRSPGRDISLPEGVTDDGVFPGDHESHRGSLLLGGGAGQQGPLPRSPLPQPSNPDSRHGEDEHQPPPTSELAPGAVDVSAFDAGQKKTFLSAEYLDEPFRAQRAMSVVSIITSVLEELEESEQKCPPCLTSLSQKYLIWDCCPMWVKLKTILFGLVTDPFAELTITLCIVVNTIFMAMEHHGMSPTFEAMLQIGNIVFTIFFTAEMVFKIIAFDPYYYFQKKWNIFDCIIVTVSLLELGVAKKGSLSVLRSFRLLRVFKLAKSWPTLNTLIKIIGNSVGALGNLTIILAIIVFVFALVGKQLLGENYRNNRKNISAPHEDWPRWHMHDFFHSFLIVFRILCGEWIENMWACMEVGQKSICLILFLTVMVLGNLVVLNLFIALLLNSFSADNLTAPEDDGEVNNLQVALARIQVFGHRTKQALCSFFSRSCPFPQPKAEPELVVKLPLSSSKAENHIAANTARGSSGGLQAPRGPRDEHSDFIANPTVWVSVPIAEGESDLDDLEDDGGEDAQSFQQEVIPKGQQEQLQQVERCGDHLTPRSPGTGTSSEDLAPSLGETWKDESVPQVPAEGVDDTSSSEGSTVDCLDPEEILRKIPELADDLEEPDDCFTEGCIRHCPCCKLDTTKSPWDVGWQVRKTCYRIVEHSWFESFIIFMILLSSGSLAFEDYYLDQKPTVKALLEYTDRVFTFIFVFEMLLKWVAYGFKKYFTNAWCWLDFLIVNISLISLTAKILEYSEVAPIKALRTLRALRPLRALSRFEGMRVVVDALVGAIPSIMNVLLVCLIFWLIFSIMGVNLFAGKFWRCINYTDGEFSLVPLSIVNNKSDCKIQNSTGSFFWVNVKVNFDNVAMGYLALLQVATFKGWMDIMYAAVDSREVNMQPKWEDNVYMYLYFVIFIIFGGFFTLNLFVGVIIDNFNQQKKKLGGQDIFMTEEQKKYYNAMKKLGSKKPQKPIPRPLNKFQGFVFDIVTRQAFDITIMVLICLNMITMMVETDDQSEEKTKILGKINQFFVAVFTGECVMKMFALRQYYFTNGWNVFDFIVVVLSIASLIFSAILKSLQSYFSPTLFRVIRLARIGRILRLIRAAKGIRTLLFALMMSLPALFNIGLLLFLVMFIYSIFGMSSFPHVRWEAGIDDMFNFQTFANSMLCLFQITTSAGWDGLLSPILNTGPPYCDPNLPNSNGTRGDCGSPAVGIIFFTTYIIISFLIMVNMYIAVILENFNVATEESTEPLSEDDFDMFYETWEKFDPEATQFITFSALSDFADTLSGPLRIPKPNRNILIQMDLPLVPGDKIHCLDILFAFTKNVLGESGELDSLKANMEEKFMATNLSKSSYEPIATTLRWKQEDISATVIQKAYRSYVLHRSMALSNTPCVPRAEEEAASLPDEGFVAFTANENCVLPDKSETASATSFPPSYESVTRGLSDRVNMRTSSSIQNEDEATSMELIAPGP
Experiment: E-VIPR assay for detecting and measuring NaV inhibition properties
Type: cell-based
Conditions: E-VIPR assay conducted in the presence of human serum; HEK cells expressing truncated human NaV 1.8; read-out: IC50
Readout kind: IC50 (nM)

// known answers, use as guide
>  <Compound>
CCOc1ccc(Oc2ccc(C(F)(F)F)c(F)c2C(=O)Nc2ccnc(C(N)=O)c2)cc1F [Compound 29]

>  <Test value>
45

$$$$
>  <Compound>
[2H]C([2H])([2H])Oc1cc(OC(F)(F)F)ccc1Oc1cc2c(cc1C(=O)Nc1ccnc(C(N)=O)c1)OCCO2 [Compound 1036]

>  <Test value>
1750

$$$$
>  <Compound>
Cc1c(Oc2ccc(C(F)(F)F)c(F)c2C(=O)Nc2ccc(C(N)=O)nc2)ccc(F)c1F [Compound 207]

>  <Test value>
370

$$$$
>  <Compound>
COc1c(Oc2ccc(C3CC3)c(C)c2C(=O)Nc2ccc(C(N)=O)nc2)ccc(OC(F)(F)F)c1F [Compound 197]

>  <Test value>
120

$$$$
>  <Compound>
COc1cc(OC(F)(F)F)ccc1Oc1cc(C2CCC(C(F)(F)F)CC2)ccc1C(=O)Nc1ccnc(C(N)=O)c1 (single isomer, unassigned) [158 (first diastereomer)]

>  <Test value>
960

$$$$
>  <Compound>
COc1cc(OC(F)(F)F)ccc1Oc1cc(C(F)(F)F)cc(C)c1C(=O)Nc1ccc(C(N)=O)nc1 [Compound 187]

>  <Test value>
490

$$$$
>  <Compound>
Cc1cc(Oc2ccc(C(F)(F)F)c(F)c2C(=O)Nc2ccnc(C(N)=O)c2)ccc1F [Compound 32]

>  <Test value>
200

$$$$
>  <Compound>
COc1c(Oc2ccc(C(F)(F)F)c(F)c2C(=O)Nc2ccnc(C(N)=O)c2)ccc(F)c1F [Compound 31]

>  <Test value>
9

$$$$
>  <Compound>
[2H]C([2H])([2H])Oc1cc(OC(F)(F)F)ccc1Oc1cc(C2CCOCC2)cc(F)c1C(=O)Nc1ccnc(C(N)=O)c1 [Compound 1019]

>  <Test value>
79

$$$$

1. COc1cc(OC(F)(F)F)ccc1Oc1ccc(OC2CC(F)(F)C2)c(C)c1C(=O)Nc1ccnc(C(N)=O)c1 [Compound 204]
2. COc1cc(OC(F)(F)F)ccc1Oc1cc(-c2ccc(C(F)(F)F)cc2)ccc1C(=O)Nc1ccnc(C(N)=O)c1 [Compound 157]
3. COc1c(Oc2cnc(C(F)(F)F)c(F)c2C(=O)Nc2ccnc(C(N)=O)c2)ccc(OC(F)(F)F)c1F [Compound 332]
// smallest IC50 at index 0, largest at the end Your answer should be the labels, listed in the requested order.
3, 1, 2
